Biological target: BTK-1h (Homo sapiens)
Construct: The BTK kinase domain was diluted to 2 μM in the buffer, and 2 μM 1h was added; made in house
Assay: High-throughput screening with 1h-labeled BTK
Format: binding
Settings: Dataset S2A; 200 μM compound, BTK-1h, 32 °C, 10 min
Give FI (650)/FI (620) for every item shown.
Give bare numbers.

Report FI (650)/FI (620) for each item below.
1. O=C1NC(=O)C(c2cnc3ccccn23)=C1c1cn2c3c(cc(F)cc13)CN(C(=O)N1CCCCC1)CC2
2. C=CC(=O)N1CCC(Oc2cc3c(Nc4ccc(Cl)c(Cl)c4F)ncnc3cc2OC)CC1
3. CCCCc1oc2ccccc2c1C(=O)c1cc(I)c(OCCN(CC)CC)c(I)c1.Cl

0.9847
1.023
1.028

###

Molecular target: BTK-1h (Homo sapiens, UniProt Q06187)
Construct: The BTK kinase domain was diluted to 2 μM in the buffer, and 2 μM 1h was added; made in house
Sequence (Q06187 402-655): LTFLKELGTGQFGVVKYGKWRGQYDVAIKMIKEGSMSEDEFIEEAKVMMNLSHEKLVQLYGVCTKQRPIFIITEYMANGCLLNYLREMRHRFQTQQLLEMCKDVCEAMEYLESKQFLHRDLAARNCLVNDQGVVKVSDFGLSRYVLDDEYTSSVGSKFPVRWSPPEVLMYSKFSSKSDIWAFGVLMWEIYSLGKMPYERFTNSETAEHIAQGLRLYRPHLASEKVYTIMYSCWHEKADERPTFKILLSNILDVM
Assay: High-throughput screening with 1h-labeled BTK
Assay type: binding
Details: Dataset S2A; 200 μM compound, BTK-1h, 32 °C, 10 min
What FI (650)/FI (620) was measured for each of the following?
Numbers only.

Some solved cases for reference:
CC(C)=CCc1cc2c(cc1O)O[C@H](c1ccc(O)cc1)CC2=O [PCM-0216180-001]    1.0081
Cc1ccccc1C(=O)Nc1ccc(C(=O)N2CCCC(N(C)C)c3ccccc32)cc1 (stereo not shown) [PCM-0095424-002]    1.034
C[C@@H]1O[C@@H](O[C@H]2[C@H](O[C@H]3CC[C@@]4(C)[C@@H](CC[C@]5(C)[C@@H]4CC=C4[C@@H]6CC(C)(C)CC[C@]6(C(=O)O)CC[C@]45C)[C@]3(C)CO)OC[C@H](O[C@@H]3O[C@H](CO)[C@@H](O)[C@H](O)[C@H]3O)[C@@H]2O)[C@H](O)[C@H](O)[C@H]1O [PCM-0216539-001]    0.7503
Cc1c[nH]c2nc(Nc3ccc(N4CCN(C)CC4)c(F)c3)nc(-c3cccc(CC#N)c3)c12 [PCM-0215633-001]    1.1215
O=C(c1ccc(Oc2ccccc2)cc1Cl)c1c[nH]c2ncnc(N[C@@H]3CC[C@@H](CO)OC3)c12 [PCM-0216245-001, ARQ 531]    3.795
C=CC(=O)N1CCN(C(=O)CNc2cc(I)c(Cl)cc2O)CC1 [PCM-0215367-001]    1.111

I have 7 compounds here; please give me FI (650)/FI (620) for each one.
1. COc1ccc(CC(=O)Nc2nc3c(s2)CCc2ccccc2-3)cc1OC [PCM-0215753-001]
2. Cc1cc(C(=O)Nc2nc3cccc(Cl)c3n2[C@@H]2CCCCN(C(=O)/C=C/CN(C)C)C2)ccn1 [PCM-0215804-001]
3. COc1ccc(-c2nc(-c3cc(C(F)(F)F)cc(C(F)(F)F)c3)n(Cc3ccc(C(N)=O)cc3)c2-c2ccc(OC)cc2)cc1 [PCM-0215748-001]
4. COc1cc(NC(=O)c2ccc(-c3ccc(Cl)cc3)o2)cc(OC)c1 [PCM-0095366-002]
5. CN(Cc1ccc(C(C)(C)C)cc1)Cc1cccc2ccccc12.Cl [PCM-0086068-001]
6. CN1c2ccccc2C(=O)Nc2cnc(Nc3ccc(N4CCC(O)CC4)cc3)nc21 [PCM-0215745-001]
7. C=CC(=O)Nc1cccc(Nc2nc(Nc3ccc(NC4CN(CCF)C4)cc3OC)ncc2C(F)(F)F)c1 [PCM-0215208-001]

1: 0.9809; 2: 1.045; 3: 0.9815; 4: 1.0001; 5: 0.9972; 6: 1.794; 7: 1.1509
